system: primary human fibroblasts derived from IPF patients (LL29 cells), α-smooth muscle actin (αSMA); test: Inhibition of the fibrotic process: TGF-β1-treated primary human fibroblasts from IPF patients, αSMA staining; assay type: cell-based; conditions: Fibroblast, 96 h, LL29 fibroblasts from IPF patients, TGF-β1 20 ng/mL, 4 days, inhibition of fibrotic process
Experimental endpoint: EC50

Batch request: EC50 per item, same order as input.
1. CN1CCN(c2ccnc3[nH]c(-c4n[nH]c5ccc(-c6cnccn6)nc45)nc23)CC1 [Compound 648]
2. Cn1cc(-c2ccc3[nH]nc(-c4nc5c(-c6cccc(F)c6)ccnc5[nH]4)c3n2)cn1 [Compound 508]
3. COc1cncc(-c2ccc3[nH]nc(-c4nc5c(N6CCCCC6)ccnc5[nH]4)c3n2)c1 [Compound 612]

Result:
1: > 10 µM; 2: > 10 µM; 3: > 10 µM

====

tested on: Wnt activity (Sp5-Luc reporter, SW480 colon carcinoma cells); assay: Screening assay for Wnt activity: Sp5-Luc reporter gene assay in SW480 cells; assay type: cell-based; details: Homo sapiens, overnight incubation, 10-point dose-response from 10 μM
Please respond with reported EC50 for every item in the list.

| Record smiles | Target or system | Reported value |
| --- | --- | --- |
| CCC(=O)Nc1cncc(-c2ccc3[nH]nc(-c4nc5c(-c6ccsc6)ccnc5[nH]4)c3n2)c1 | Wnt activity (Sp5-Luc reporter, SW480 colon carcinoma cells) | > 10 µM |
| CN1CCN(c2ccnc3[nH]c(-c4n[nH]c5ccc(-c6cncc(N)c6)nc45)nc23)CC1 | Wnt activity (Sp5-Luc reporter, SW480 colon carcinoma cells) | > 10 µM |

With those in mind, consider the next compound.
compound c1cc(-c2ccoc2)c2nc(-c3n[nH]c4ccc(-c5cncc(OCCN6CCCC6)c5)nc34)[nH]c2n1 , EC50 observed: > 10 µM

====

tested on: primary human fibroblasts derived from IPF patients (LL29 cells), α-smooth muscle actin (αSMA); assay: Inhibition of the fibrotic process: TGF-β1-treated primary human fibroblasts from IPF patients, αSMA staining; type: cell-based; settings: Fibroblast, 96 h, LL29 fibroblasts from IPF patients, TGF-β1 20 ng/mL, 4 days, inhibition of fibrotic process
Experimental endpoint: EC50 (µM)
Answers are plain numbers, in µM.

| Compound | Experimental endpoint | Unit label | Reported value |
| --- | --- | --- | --- |
| CS(=O)(=O)NCc1cc(F)cc(-c2ccnc3[nH]c(-c4n[nH]c5ccc(-c6cncc(NC(=O)CC7CCNCC7)c6)nc45)nc23)c1 [Compound 769] | EC50 | µM | 4.46 |
| Cc1ccc(-c2ccnc3[nH]c(-c4n[nH]c5ccc(C6=CCNCC6)nc45)nc23)s1 [Compound 730] | EC50 | µM | 0.489 |
| CN1CCN(c2ccnc3[nH]c(-c4n[nH]c5ccc(-c6cncc(OC7CCCCC7)c6)nc45)nc23)CC1 [Compound 639] | EC50 | µM | 3.27 |

Answer for every listed entry: what is its EC50? The entries follow.
1. CN(C)CCNc1cc(F)cc(-c2ccnc3[nH]c(-c4n[nH]c5ccc(-c6cncc(CNCC7CCCC7)c6)nc45)nc23)c1 [Compound 473]
2. c1cc(-c2ccoc2)c2nc(-c3n[nH]c4ccc(-c5cncc(OCCN6CCCC6)c5)nc34)[nH]c2n1 [Compound 690]

Result:
1: 1.53; 2: 4.75

Take each entry in turn and give its EC50.
1. Cc1ccc(-c2ccnc3[nH]c(-c4n[nH]c5ccc(-c6cncc(OC7CCCCC7)c6)nc45)nc23)s1 [Compound 735]
2. Cc1cn(-c2ccnc3[nH]c(-c4n[nH]c5ccc(-c6cncc(OCCN(C)C)c6)nc45)nc23)cn1 [Compound 627]

Result:
0.139
4.8
